Parameter collision cross section (N2): see the listing below.
# PROTOCOL CONDITIONS: [M+H]+; instrument: DT; stepped-field

MOLECULE: CC(=O)N[C@H](Cc1c[nH]c2ccccc12)C(=O)O
collision cross section (N2) [Å²]: 155.67

MOLECULE: COc1ccc(-c2cc(=O)c3c(OC)c(OC)c(OC)c(OC)c3o2)cc1
collision cross section (N2) [Å²]: 187.9

MOLECULE: C[C@]12CCC(=O)C=C1CC[C@@H]1[C@@H]2[C@@H](O)C[C@@]2(C)[C@H]1CC[C@]2(O)C(=O)CO
collision cross section (N2) [Å²]: 188.88

MOLECULE: O=c1c(O)c(-c2ccc(O)cc2)oc2cc(O)cc(O)c12
collision cross section (N2) [Å²]: 165.99

MOLECULE: O=C(O)Cc1cnc[nH]1
collision cross section (N2) [Å²]: 128.23

MOLECULE: O=c1cc(-c2ccc(O)c(-c3c(O)cc(O)c4c(=O)cc(-c5ccc(O)cc5)oc34)c2)oc2cc(O)cc(O)c12
collision cross section (N2) [Å²]: 230.16

MOLECULE: Nc1ccccc1C(=O)CC(N)C(=O)O (centres undefined)
collision cross section (N2) [Å²]: 151.07

MOLECULE: CSC[C@H]1O[C@@H](n2cnc3c(N)ncnc32)[C@H](O)[C@@H]1O
collision cross section (N2) [Å²]: 173.03

MOLECULE: O=C(O)c1cc(=O)c2ccccc2[nH]1
collision cross section (N2) [Å²]: 140.99

MOLECULE: O=c1[nH]c(=O)c2ncn([C@@H]3O[C@H](CO)[C@@H](O)[C@H]3O)c2[nH]1
collision cross section (N2) [Å²]: 166.49

MOLECULE: CC(C)=CCC/C(C)=C/CC/C(C)=C/CC/C(C)=C/CC1=C(C)C(=O)c2ccccc2C1=O
collision cross section (N2) [Å²]: 198.66

MOLECULE: O=C(O)Cc1c[nH]c2ccccc12
collision cross section (N2) [Å²]: 138.11

MOLECULE: Cc1ccc2c(c1)[C@H](Nc1nc(N)nc(C(C)F)n1)[C@@H](C)C2 (some centres undefined)
collision cross section (N2) [Å²]: 169.27

MOLECULE: CC/C=C\C/C=C\C/C=C\C/C=C\C/C=C\C/C=C\CCC(=O)O
collision cross section (N2) [Å²]: 184.62
